target: pan-HDAC; assay: In vitro enzyme inhibition assay - HDAC (HDAC-Glo I/II), pan-HDAC; assay type: biochemical
Where a name gives a salt, the structure may show the parent alone.
In this section we review reported IC50 values for a set of compounds.
The figure you give is taken to be in nM; do not add the unit.

Compound	IC50 (nM)
COc1ccc(-c2c(C#N)cc(N3CCC(NCc4ccc(/C=C/C(=O)NO)cc4)CC3)nc2-c2ccc(C#N)c(F)c2)cc1O [Example 176, formate]	38.2
COc1cc(-c2cnc(N3CCC(NCCc4cccc(/C=C/C(=O)NO)c4)CC3)c(C#N)c2-c2ccc(C#N)c(F)c2)ccc1O	340
Cc1ccc(-c2c(-c3ccc(C#N)c(F)c3)nc(N3CCC(NCCCCCCC(=O)NO)CC3)n3ccnc23)cc1O [Example 34, Hydrochloride]	552

Value lookup for IC50; key = N#Cc1ccc(-c2c(-c3ccc(OC(F)(F)F)c(O)c3)cnc(N3CCC(NCc4ccc(/C=C/C(=O)NO)cc4)CC3)c2C#N)cc1F
12.7

Value lookup for IC50; key = COc1ccc(-c2cnc(N3CCC(NCc4ncc(/C=C/C(=O)NO)cc4F)CC3)c(C#N)c2-c2ccc(C#N)c(F)c2)cc1O [Example 230, formate]
10.3

Value lookup for IC50; key = COc1ccc(-c2cnc(N3CCC(NCc4cnc(/C=C/C(=O)NO)s4)CC3)c(C#N)c2-c2ccc(C#N)c(F)c2)cc1O
26.9

* * *

LSD1 (Homo sapiens (Human)) measurements of pIC50, listed per entry.
Where a name gives a salt, the structure may show the parent alone.
Conceptually, pIC50 converts a concentration in mol/L into minus its log10.

Consider the reported pIC50 for these compounds:
Compound	Endpoint	Reported Value
N#Cc1ccc(-c2c(-c3ccc(Cl)c(O)c3)cnc(N3CCC(NCc4ccc(/C=C/C(=O)NO)cn4)CC3)c2C#N)cc1F [Example 239, formate]	pIC50	8.63
N#Cc1ccc(-c2c(-c3ccc(CO)c(O)c3)cnc(N3CCC(NCc4ccc(/C=C/C(=O)NO)cc4)CC3)c2C#N)cc1F [Example 131, formate]	pIC50	8.88
CC(C)(O)COc1ccc(-c2cnc(N3CCC(NCc4ccc(/C=C(\F)C(=O)NO)cc4)CC3)c(C#N)c2-c2ccc(C#N)c(F)c2)cc1O [Example 198, formate]	pIC50	9.40
CNc1ccc(-c2cnc(N3CCC(NCc4ccc(CCC(=O)NO)cn4)CC3)c(C#N)c2-c2ccc(C#N)c(F)c2)cc1O [Example 194, hydrochloride]	pIC50	8.96
COc1ccc(-c2cnc(N3CCC(NCc4ccc(/C=C/C(=O)NO)cc4C)CC3)c(C#N)c2-c2ccc(C#N)c(F)c2)cc1O [Example 211, formate]	pIC50	9.51

Value lookup for pIC50; key = Cc1ccc(-c2c(-c3ccc(C#N)c(F)c3)nc(N3CCC(NCCCCCCC(=O)NO)CC3)n3ccnc23)cc1O [Example 34, Hydrochloride]
8.95

Value lookup for pIC50; key = Cc1cc(-c2c(OCCCCCCC(=O)NO)cc(N3CCC(N)CC3)nc2-c2ccc(C#N)c(F)c2)ccn1 [Example 10, hydrochloride]
7.12

Value lookup for pIC50; key = COc1ccc(-c2cnc(N3CCC(NCc4ccc(/C=C/C(=O)NO)cc4)CC3)c(CC#N)c2-c2ccc(C#N)nc2)cc1O [Example 261, formate]
8.50

Value lookup for pIC50; key = N#Cc1ccc(-c2c(-c3ccc(Cl)c(O)c3)cnc(N3CCC(NCc4ccc(/C=C/C(=O)NO)cn4)CC3)c2C#N)cn1 [Example 238]
8.46

Value lookup for pIC50; key = COc1ccc(-c2cnc(N3CCC(NCc4ncc(/C=C/C(=O)NO)cn4)CC3)c(C#N)c2-c2ccc(C#N)c(F)c2)cc1O [Example 135, formate]
8.50

Value lookup for pIC50; key = COc1ccc(-c2cnc(N3CCC(NC(C)(C)c4ccc(/C=C/C(=O)NO)cc4)CC3)c(C#N)c2-c2ccc(C#N)c(F)c2)cc1O [Example 179, formate]
7.00
